Source: patent US20170137410A1

# SYSTEM UNDER TEST: Trk C (Homo sapiens, UniProt Q16288)
# Sequence (Q16288 32-839): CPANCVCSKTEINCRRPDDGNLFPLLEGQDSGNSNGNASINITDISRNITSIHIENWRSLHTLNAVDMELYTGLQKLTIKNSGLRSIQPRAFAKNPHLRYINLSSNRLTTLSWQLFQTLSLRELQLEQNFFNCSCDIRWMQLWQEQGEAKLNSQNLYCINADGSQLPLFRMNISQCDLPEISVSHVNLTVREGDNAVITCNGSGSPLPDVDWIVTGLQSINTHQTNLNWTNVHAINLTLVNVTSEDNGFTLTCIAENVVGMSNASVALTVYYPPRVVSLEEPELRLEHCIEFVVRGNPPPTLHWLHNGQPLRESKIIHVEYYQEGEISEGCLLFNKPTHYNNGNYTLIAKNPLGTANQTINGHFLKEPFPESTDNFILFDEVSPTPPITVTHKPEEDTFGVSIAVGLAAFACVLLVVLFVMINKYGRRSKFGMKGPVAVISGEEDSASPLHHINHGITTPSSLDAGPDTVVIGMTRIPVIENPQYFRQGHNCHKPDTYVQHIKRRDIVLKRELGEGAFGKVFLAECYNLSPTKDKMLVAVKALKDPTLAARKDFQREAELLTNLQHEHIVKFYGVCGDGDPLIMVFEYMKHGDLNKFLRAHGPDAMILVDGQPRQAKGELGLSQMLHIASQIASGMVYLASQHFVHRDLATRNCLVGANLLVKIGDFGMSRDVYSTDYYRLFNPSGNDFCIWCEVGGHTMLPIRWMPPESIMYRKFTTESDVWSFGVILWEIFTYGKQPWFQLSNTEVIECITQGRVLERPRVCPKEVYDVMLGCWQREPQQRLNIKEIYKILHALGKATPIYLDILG
# METHOD SUMMARY: HotSpot kinase assay against Trk C
# Type: biochemical
# CONDITION DESCRIPTION: HotSpot 33P assay, ATP 10 μM-30 μM
REPORTED ENDPOINT: pIC50
A value of pIC50 is the negative decimal logarithm of a concentration given in moles per litre.

Below, 3 molecules whose answers are already recorded.
| MOLECULE | SYSTEM UNDER TEST | MEASURED RESULT |
| --- | --- | --- |
| CN1CCN(C(=O)[C@@H]2CCCN2c2nc3c(c(Nc4cc(C5CCCC5)[nH]n4)n2)CCC3)CC1 [134b] | Trk C (Homo sapiens, UniProt Q16288) | 8.32 |
| CC(C)c1cc(Nc2nc(N3CCC[C@@H]3C(=O)N3CCC(F)(F)C3)nc3c2CCC3)n[nH]1 [139a] | Trk C (Homo sapiens, UniProt Q16288) | 6.84 |
| CC(C)c1cc(Nc2nc(N3CCC[C@@H]3C(=O)N3CC(F)(F)C(F)(F)C3)nc3c2CCC3)n[nH]1 [112a] | Trk C (Homo sapiens, UniProt Q16288) | 6.55 |

In: Please give the documented pIC50 of CC1(C)CCN(C(=O)[C@@H]2CCCN2c2nc3c(c(Nc4cc(C5CCCC5)n[nH]4)n2)CCC3)CC1 [135b]
Out: 8.60

In: Please give the documented pIC50 of CC(C)c1cc(Nc2nc(N3CCC[C@H]3C(=O)N3CC(F)(F)C(F)(F)C3)nc3c2CCC3)n[nH]1 [112b]
Out: 8.89

In: Please give the documented pIC50 of O=C(Nc1nccs1)[C@@H]1CCCN1c1nc2c(c(Nc3cc(C4CCCC4)[nH]n3)n1)CCC2 [133b]
Out: 9.61

In: Please give the documented pIC50 of CN(C(=O)[C@@H]1CCCN1c1nc2c(c(Nc3cc(C4CCCC4)n[nH]3)n1)CCC2)c1nccs1 [70b]
Out: 8.92

In: Please give the documented pIC50 of O=C([C@@H]1CCCN1c1nc2c(c(Nc3cc(C4CCCC4)[nH]n3)n1)CCC2)N1CCC(F)(F)C1 [109b]
Out: 9.52
